# subject.of.test: UniProtKB P08172
# Sequence (P08172 whole entry): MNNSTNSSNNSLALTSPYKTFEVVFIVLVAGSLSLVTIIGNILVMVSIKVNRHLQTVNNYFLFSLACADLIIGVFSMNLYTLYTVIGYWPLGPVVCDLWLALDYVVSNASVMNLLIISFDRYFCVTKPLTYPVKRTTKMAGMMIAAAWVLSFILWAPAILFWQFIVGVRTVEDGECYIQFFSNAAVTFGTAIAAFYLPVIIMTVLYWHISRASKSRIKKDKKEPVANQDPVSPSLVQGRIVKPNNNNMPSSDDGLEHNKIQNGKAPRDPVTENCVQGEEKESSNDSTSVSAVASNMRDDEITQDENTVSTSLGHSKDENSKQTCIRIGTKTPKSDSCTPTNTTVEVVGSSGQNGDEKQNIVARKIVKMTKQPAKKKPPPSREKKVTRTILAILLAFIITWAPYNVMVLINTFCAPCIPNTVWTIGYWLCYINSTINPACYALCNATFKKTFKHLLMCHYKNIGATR
# Type: functional, cell-based
// values below are reported AC50

molecule: O=C1c2ccccc2C(=O)C1c1ccccc1 [PHENINDIONE]
AC50: > 10 µM

-- ask Could you please provide reported AC50 for CCC[C@@H]1C[C@@H](C(=O)N[C@@H]([C@H]2O[C@H](SC)[C@H](O)[C@@H](O)[C@H]2O)[C@@H](C)O)N(C)C1 [LINCOMYCIN] ? Thanks!
-- reply > 10 µM

-- ask Could you please provide reported AC50 for CN(C)Cc1nnc2n1-c1ccc(Cl)cc1C(c1ccccc1)=NC2 [ADINAZOLAM] ? Thanks!
-- reply > 10 µM

-- ask Could you please provide reported AC50 for CN(CCOc1ccc(CC2SC(=O)NC2=O)cc1)c1ccccn1 (stereo not given) [ROSIGLITAZONE] ? Thanks!
-- reply 22 µM

-- ask Could you please provide reported AC50 for Cc1ccnc2c1NC(=O)c1cccnc1N2C1CC1 [NEVIRAPINE] ? Thanks!
-- reply > 10 µM

-- ask Could you please provide reported AC50 for COc1ccc2cc(CCC(C)=O)ccc2c1 [NABUMETONE] ? Thanks!
-- reply > 10 µM

-- ask Could you please provide reported AC50 for CCCN1CCCC[C@H]1C(=O)Nc1c(C)cccc1C [ROPIVACAINE] ? Thanks!
-- reply > 30 µM

-- ask Could you please provide reported AC50 for O=C(O)Cc1ccccc1Nc1c(Cl)cccc1Cl [DICLOFENAC] ? Thanks!
-- reply > 10 µM

-- ask Could you please provide reported AC50 for "CC(C)N(CCCCOCC(=O)O)c1cnc(-c2ccccc2)c(-c2ccccc2)n1" ? Thanks!
-- reply > 30 µM

-- ask Could you please provide reported AC50 for CC1=C(/C=C/C(C)=C/C=C/C(C)=C/CO)C(C)(C)CCC1 [RETINOL] ? Thanks!
-- reply > 10 µM

-- ask Could you please provide reported AC50 for C=C1c2cccc(O)c2C(=O)C2=C(O)[C@]3(O)C(=O)C(C(N)=O)=C(O)[C@@H](N(C)C)[C@@H]3[C@@H](O)[C@H]12 [METHACYCLINE] ? Thanks!
-- reply > 10 µM

-- ask Could you please provide reported AC50 for COc1ccc(CN2CCN(C(c3ccc(F)cc3)c3ccc(F)cc3)CC2)c(OC)c1OC [LOMERIZINE] ? Thanks!
-- reply 24 µM

-- ask Could you please provide reported AC50 for O=C(NCCO[N+](=O)[O-])c1cccnc1 [NICORANDIL] ? Thanks!
-- reply > 30 µM

-- ask Could you please provide reported AC50 for Cc1onc(-c2c(F)cccc2Cl)c1C(=O)N[C@@H]1C(=O)N2[C@@H]1SC(C)(C)[C@@H]2C(=O)O [FLOXACILLIN] ? Thanks!
-- reply > 30 µM

-- ask Could you please provide reported AC50 for CCCc1cc(=O)[nH]c(=S)[nH]1 [PROPYLTHIOURACIL] ? Thanks!
-- reply > 10 µM

-- ask Could you please provide reported AC50 for CCc1cc2c(s1)-n1c(C)nnc1CN=C2c1ccccc1Cl [ETIZOLAM] ? Thanks!
-- reply > 30 µM

-- ask Could you please provide reported AC50 for CCCC(C)(COC(N)=O)COC(N)=O [MEPROBAMATE] ? Thanks!
-- reply > 10 µM

====

# subject.of.test: 5-hydroxytryptamine receptor 2A (Homo sapiens, UniProt P28223)
# Sequence (P28223 whole entry): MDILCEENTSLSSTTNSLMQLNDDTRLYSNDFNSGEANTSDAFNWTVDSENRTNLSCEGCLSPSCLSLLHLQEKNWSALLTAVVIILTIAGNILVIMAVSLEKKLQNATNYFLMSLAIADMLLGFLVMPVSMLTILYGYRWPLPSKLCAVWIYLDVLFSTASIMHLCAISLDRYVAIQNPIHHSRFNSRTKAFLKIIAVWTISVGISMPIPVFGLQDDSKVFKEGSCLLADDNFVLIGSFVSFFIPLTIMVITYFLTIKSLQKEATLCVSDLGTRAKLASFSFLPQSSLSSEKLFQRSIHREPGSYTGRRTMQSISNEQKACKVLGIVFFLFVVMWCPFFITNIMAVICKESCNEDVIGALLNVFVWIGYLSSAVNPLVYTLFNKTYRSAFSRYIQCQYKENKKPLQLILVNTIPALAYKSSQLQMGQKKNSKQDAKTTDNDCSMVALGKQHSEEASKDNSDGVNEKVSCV
# Format: functional, cell-based
// values below are reported AC50

Reference set, count: 2
molecule: O=c1[nH]c2ccccc2n1CCCN1CCN(C(c2ccccc2)c2ccccc2)CC1 [OXATOMIDE]
subject.of.test: 5-hydroxytryptamine receptor 2A (Homo sapiens, UniProt P28223)
measured.endpoint: AC50
observed.value: 1.2 µM
--
molecule: CCCN1CCCC[C@H]1C(=O)Nc1c(C)cccc1C [ROPIVACAINE]
subject.of.test: 5-hydroxytryptamine receptor 2A (Homo sapiens, UniProt P28223)
measured.endpoint: AC50
observed.value: > 30 µM

-- ask Could you please provide reported AC50 for CN1CCN=C(c2ccccc2)c2cc(Cl)ccc21 [MEDAZEPAM] ? Thanks!
-- reply > 30 µM

-- ask Could you please provide reported AC50 for CCc1cc2c(s1)-n1c(C)nnc1CN=C2c1ccccc1Cl [ETIZOLAM] ? Thanks!
-- reply > 30 µM

-- ask Could you please provide reported AC50 for CC=CC1=C(C(=O)O)N2C(=O)[C@@H](NC(=O)[C@H](N)c3ccc(O)cc3)[C@H]2SC1 [CEFPROZIL] ? Thanks!
-- reply > 30 µM

====

# subject.of.test: Muscarinic acetylcholine receptor M1 (Homo sapiens, UniProt P11229)
# Sequence (P11229 whole entry): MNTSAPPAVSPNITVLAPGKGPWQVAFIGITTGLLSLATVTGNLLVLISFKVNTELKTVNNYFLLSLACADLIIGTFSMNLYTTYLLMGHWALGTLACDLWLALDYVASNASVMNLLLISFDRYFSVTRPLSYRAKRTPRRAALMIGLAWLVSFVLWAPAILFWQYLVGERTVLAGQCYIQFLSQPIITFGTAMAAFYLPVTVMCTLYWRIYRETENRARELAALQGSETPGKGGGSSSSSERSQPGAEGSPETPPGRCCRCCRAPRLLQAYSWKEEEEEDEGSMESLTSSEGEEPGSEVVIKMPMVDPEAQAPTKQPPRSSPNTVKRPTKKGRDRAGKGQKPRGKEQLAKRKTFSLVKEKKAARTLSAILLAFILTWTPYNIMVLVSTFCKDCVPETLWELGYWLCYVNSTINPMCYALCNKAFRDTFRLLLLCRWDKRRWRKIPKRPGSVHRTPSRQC
# Format: functional
measured.endpoint: AC50

compound: CN1Cc2c(N)cccc2C(c2ccccc2)C1 (centres undefined) [NOMIFENSINE]
subject.of.test: Muscarinic acetylcholine receptor M1 (Homo sapiens, UniProt P11229)
AC50: > 30 µM

compound: CCOC(=O)[C@@H](N)Cc1ccc(-c2cc(O[C@H](c3ccc(Cl)cc3-n3ccc(C)n3)C(F)(F)F)nc(N)n2)cc1 [TELOTRISTAT ETHYL]
subject.of.test: Muscarinic acetylcholine receptor M1 (Homo sapiens, UniProt P11229)
AC50: > 30 µM

compound: CC/C=C\C/C=C\C/C=C\C/C=C\C/C=C\CCCC(=O)OCC [ICOSAPENT ETHYL]
subject.of.test: Muscarinic acetylcholine receptor M1 (Homo sapiens, UniProt P11229)
AC50: > 30 µM

Turning now to a further compound:
-- ask Could you please provide reported AC50 for O=C(CCCN1CCC(O)(c2ccc(Br)cc2)CC1)c1ccc(F)cc1 [BROMPERIDOL] ? Thanks!
-- reply 20 µM

====

# subject.of.test: Alpha-2A adrenergic receptor (Homo sapiens, UniProt P08913)
# Sequence (P08913 whole entry): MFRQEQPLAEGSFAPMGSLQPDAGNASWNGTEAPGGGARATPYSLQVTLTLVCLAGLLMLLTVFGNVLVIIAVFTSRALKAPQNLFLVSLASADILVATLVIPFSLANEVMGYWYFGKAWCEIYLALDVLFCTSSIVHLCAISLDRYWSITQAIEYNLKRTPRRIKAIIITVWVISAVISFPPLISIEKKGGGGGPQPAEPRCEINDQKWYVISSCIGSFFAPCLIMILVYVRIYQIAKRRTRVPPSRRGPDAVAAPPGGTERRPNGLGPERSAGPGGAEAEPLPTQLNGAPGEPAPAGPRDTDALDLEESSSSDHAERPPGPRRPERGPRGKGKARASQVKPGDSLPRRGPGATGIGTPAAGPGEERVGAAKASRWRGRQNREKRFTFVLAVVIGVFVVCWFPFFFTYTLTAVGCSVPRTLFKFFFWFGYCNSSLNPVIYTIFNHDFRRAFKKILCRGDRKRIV
# Format: functional, cell-based
measured.endpoint: AC50

Reference set, count: 5
compound: COc1ccc([C@@H]2CC(=O)c3c(O)cc(O)cc3O2)cc1O
observed.value: > 10 µM
//
compound: CCC1(c2ccc(N)cc2)CCC(=O)NC1=O (stereo not drawn) [AMINOGLUTETHIMIDE]
observed.value: > 30 µM
//
compound: C[N+]12CCC(CC1)C(OC(=O)C(O)(c1ccccc1)c1ccccc1)C2 (stereo not drawn)
observed.value: > 30 µM
//
compound: CCN1CC(CCN2CCOCC2)C(c2ccccc2)(c2ccccc2)C1=O (stereo not drawn)
observed.value: > 30 µM
//
compound: CC(C)[C@H](N)C(=O)OCCOCn1cnc2c(=O)[nH]c(N)nc21
observed.value: > 10 µM

-- ask Recall the reported AC50 of CC1=C(C(=O)OC(C)C)C(c2cccc([N+](=O)[O-])c2)C(C(=O)OC2CN(C(c3ccccc3)c3ccccc3)C2)=C(N)N1 (stereo not drawn) when tested on Alpha-2A adrenergic receptor (Homo sapiens, UniProt P08913). Also: assay procedure not described here.
-- reply > 30 µM

-- ask Recall the reported AC50 of Cc1cccc(C)c1NC(=O)CC12CCCN1CCC2 [PILSICAINIDE] when tested on Alpha-2A adrenergic receptor (Homo sapiens, UniProt P08913). Also: assay procedure not described here.
-- reply > 30 µM

-- ask Recall the reported AC50 of CN(CCOc1ccc(CC2SC(=O)NC2=O)cc1)c1ccccn1 (stereo not drawn) when tested on Alpha-2A adrenergic receptor (Homo sapiens, UniProt P08913). Also: assay procedure not described here.
-- reply 8.6 µM

====

// UniProt P37288 AC50 records
Sequence (P37288 whole entry): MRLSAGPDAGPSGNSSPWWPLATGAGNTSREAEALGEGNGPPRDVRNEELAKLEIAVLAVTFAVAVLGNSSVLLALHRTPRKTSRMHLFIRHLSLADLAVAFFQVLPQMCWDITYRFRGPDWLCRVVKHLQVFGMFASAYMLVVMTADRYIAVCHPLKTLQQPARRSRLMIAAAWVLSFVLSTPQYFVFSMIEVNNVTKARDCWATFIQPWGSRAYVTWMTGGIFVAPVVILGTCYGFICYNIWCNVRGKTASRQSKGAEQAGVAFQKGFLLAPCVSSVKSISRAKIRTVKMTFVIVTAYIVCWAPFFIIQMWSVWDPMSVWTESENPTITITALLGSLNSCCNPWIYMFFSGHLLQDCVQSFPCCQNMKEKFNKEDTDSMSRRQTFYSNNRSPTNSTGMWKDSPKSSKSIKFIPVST

compound: CC(C)[C@H](N)C(=O)OCCOCn1cnc2c(=O)[nH]c(N)nc21
AC50: > 10 µM

compound: Cc1ccccc1-n1c(CF)nc2ccc(N)cc2c1=O
AC50: > 30 µM

compound: CNCCc1ccc(OC(=O)C(C)C)c(OC(=O)C(C)C)c1
AC50: > 30 µM

-- ask Recall the reported AC50 of CC(=O)c1ccc(S(=O)(=O)NC(=O)NC2CCCCC2)cc1 [ACETOHEXAMIDE] when tested on UniProt P37288.
-- reply > 10 µM

-- ask Recall the reported AC50 of CCCC(C)(COC(N)=O)COC(N)=O [MEPROBAMATE] when tested on UniProt P37288.
-- reply > 10 µM

-- ask Recall the reported AC50 of "O=C1c2cccc3c2[C@H](CCC3)CN1[C@@H]1CN2CCC1CC2" when tested on UniProt P37288.
-- reply > 30 µM

-- ask Recall the reported AC50 of CC1(C)S[C@@H]2[C@H](NC(=O)C(C(=O)O)c3ccccc3)C(=O)N2[C@H]1C(=O)O (some centres undefined) when tested on UniProt P37288.
-- reply > 30 µM

-- ask Recall the reported AC50 of Clc1ccc(CCC(Cn2ccnc2)Sc2c(Cl)cccc2Cl)cc1 (centres undefined) when tested on UniProt P37288.
-- reply > 30 µM

-- ask Recall the reported AC50 of "COc1cc2[nH]c(C)c(CCN3CCN(c4ccccc4)CC3)c2cc1OC" when tested on UniProt P37288.
-- reply > 30 µM

====

# subject.of.test: Histamine H1 receptor (Homo sapiens, UniProt P35367)
# Sequence (P35367 whole entry): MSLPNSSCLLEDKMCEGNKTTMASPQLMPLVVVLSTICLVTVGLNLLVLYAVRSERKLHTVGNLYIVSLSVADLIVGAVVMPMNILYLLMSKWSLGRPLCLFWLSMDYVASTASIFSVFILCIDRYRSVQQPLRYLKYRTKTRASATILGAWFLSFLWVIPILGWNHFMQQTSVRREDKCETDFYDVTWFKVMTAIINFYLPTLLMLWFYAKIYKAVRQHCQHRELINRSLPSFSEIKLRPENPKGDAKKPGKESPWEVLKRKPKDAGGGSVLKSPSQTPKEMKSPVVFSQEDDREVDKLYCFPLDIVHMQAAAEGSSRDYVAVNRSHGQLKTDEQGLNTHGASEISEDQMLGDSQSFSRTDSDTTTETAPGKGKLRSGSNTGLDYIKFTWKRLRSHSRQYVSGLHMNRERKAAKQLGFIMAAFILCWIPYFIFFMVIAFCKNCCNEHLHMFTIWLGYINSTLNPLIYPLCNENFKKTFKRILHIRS
# Assay type: functional, cell-based
measured.endpoint: AC50

Reference set, count: 2
smiles.representation: CCCCOc1ccc(C(=O)CCN2CCCCC2)cc1
observed.value: > 30 µM
--
smiles.representation: COc1cc(C(=O)OCc2cccc(COC(=O)c3cc(OC)c(OC)c(OC)c3)n2)cc(OC)c1OC
observed.value: > 30 µM

-- ask Could you please provide reported AC50 for "COc1cc2[nH]c(C)c(CCN3CCN(c4ccccc4)CC3)c2cc1OC" ? Thanks!
-- reply > 30 µM

All figures here come from ChEMBL document CHEMBL5291721.
